The origin of these recorded values is ChEMBL document CHEMBL1138153.

- Assay Target: Kappa-type opioid receptor (Homo sapiens)
- Experiment Notes: Inhibition of U69,593 stimulated [35S]GTP-gamma-S binding to cloned human kappa opioid receptor expressed in CHO cells
- Type: functional, cell-based
Measured Attribute: Ke (nM)

molecule="COc1ccc2c(c1)CN(CCC(=O)N[C@H]1CC3CC(c4cccc(O)c4)(C1)C(C)CN3CCCc1ccccc1)CC2 (some centres undefined)" assay_target="Kappa-type opioid receptor (Homo sapiens)" quantitative_result=0.28

I = CCCCCCN1CC(C)C2(c3cccc(O)c3)CC1C[C@H](NC(=O)CCN1CCc3ccccc3C1)C2 (some centres undefined)
II = CC1CN(CCCc2ccccc2)C2C[C@H](NC(=O)CCN3CCc4ccccc4C3)CC1(c1cccc(O)c1)C2 (some centres undefined)
# input Of the two listed items, I and II , which carries the larger Ke figure? // caller expects the label of the chosen entry
# output I
(I: 0.2 nM, II: 0.09 nM)

* * *

- Assay Target: Opioid receptors; delta & kappa (Homo sapiens) (UniProt P41145+P41143)
- Sequence (P41143 whole entry, looked up): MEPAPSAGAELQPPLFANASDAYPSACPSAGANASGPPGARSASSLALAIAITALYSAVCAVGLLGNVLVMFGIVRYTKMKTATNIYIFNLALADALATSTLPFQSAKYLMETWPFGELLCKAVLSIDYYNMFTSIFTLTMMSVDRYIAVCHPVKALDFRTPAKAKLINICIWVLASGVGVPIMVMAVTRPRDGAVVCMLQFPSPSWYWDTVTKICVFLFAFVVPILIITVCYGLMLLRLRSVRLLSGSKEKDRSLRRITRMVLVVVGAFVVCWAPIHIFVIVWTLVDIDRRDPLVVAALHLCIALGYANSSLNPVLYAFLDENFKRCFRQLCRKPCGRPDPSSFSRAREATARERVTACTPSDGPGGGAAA
- Sequence (P41145 whole entry, looked up): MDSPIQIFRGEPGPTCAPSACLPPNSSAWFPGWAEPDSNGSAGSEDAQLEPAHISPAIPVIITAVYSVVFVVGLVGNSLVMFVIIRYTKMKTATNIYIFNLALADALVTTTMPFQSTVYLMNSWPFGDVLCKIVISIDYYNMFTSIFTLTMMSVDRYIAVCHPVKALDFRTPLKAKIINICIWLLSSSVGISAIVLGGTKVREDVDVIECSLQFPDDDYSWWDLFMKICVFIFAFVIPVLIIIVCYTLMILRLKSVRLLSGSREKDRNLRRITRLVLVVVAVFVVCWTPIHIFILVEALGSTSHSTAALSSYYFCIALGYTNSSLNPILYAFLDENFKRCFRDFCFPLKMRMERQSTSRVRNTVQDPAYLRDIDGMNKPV
- Experiment Notes: Selectivity for human kappa opioid receptor over human delta opioid receptor
- Assay type: protein assay
Measured Attribute: Ratio Ke

Consider the following illustrative entries.
molecule="Cc1ccccc1CCN1CC(C)C2(c3cccc(O)c3)CC1C[C@H](NC(=O)CCN1CCc3ccccc3C1)C2 (stereo partly drawn)" assay_target="Opioid receptors; delta & kappa (Homo sapiens) (UniProt P41145+P41143)" quantitative_result=625
molecule="CC1CN(CCCc2ccccc2)C2C[C@H](NC(=O)CCN3CCc4c(O)cccc4C3)CC1(c1cccc(O)c1)C2 (stereo partly drawn)" assay_target="Opioid receptors; delta & kappa (Homo sapiens) (UniProt P41145+P41143)" quantitative_result=357
molecule="CCCCCCN1CC(C)C2(c3cccc(O)c3)CC1C[C@H](NC(=O)CCN1CCc3ccccc3C1)C2 (stereo partly drawn)" assay_target="Opioid receptors; delta & kappa (Homo sapiens) (UniProt P41145+P41143)" quantitative_result=725
molecule="CC1CN(CCCc2ccccc2)C2C[C@H](NC(=O)CCN3CCc4ccc(O)cc4C3)CC1(c1cccc(O)c1)C2 (stereo partly drawn)" assay_target="Opioid receptors; delta & kappa (Homo sapiens) (UniProt P41145+P41143)" quantitative_result=689

P = CC1CN(CCCc2ccccc2)C2C[C@H](NC(=O)CCN3CCc4ccccc4C3)CC1(c1cccc(O)c1)C2 (stereo partly drawn)
Q = CC1CN(CCCc2ccccc2)C2C[C@H](NC(=O)CCN3CCOCC3)CC1(c1cccc(O)c1)C2 (stereo partly drawn)
R = COc1ccc2c(c1)CCN(CCC(=O)N[C@H]1CC3CC(c4cccc(O)c4)(C1)C(C)CN3CCCc1ccccc1)C2 (stereo partly drawn)
S = CC1CN(CCCc2ccccc2)C2C[C@H](NC(=O)CCN3CCN(C)CC3)CC1(c1cccc(O)c1)C2 (stereo partly drawn)
# input // ranking: key=Ratio Ke, reverse=True Reply with the item labels sorted in the order that was asked for.
# output R, S, P, Q
(R: 350, S: 214, P: 144, Q: 35)

a = CC1CN(CCCc2ccco2)C2C[C@H](NC(=O)CCN3CCc4ccccc4C3)CC1(c1cccc(O)c1)C2 (stereo partly drawn)
b = CC1CN(CCCc2ccccc2)C2C[C@H](NC(=O)CCN3CCc4cc(O)ccc4C3)CC1(c1cccc(O)c1)C2 (stereo partly drawn)
c = COc1cc2c(cc1OC)CN(CCC(=O)N[C@H]1CC3CC(c4cccc(O)c4)(C1)C(C)CN3CCCc1ccccc1)CC2 (single isomer, unassigned; (-))
d = CC1CN(CCCc2ccsc2)C2C[C@H](NC(=O)CCN3CCc4ccccc4C3)CC1(c1cccc(O)c1)C2 (stereo partly drawn)
# input Hi! Can you put these in order of Ratio Ke, lowest number first? Reply with the item labels sorted in the order that was asked for.
# output d, c, b, a

a = CC1CN(CCCc2ccccc2)C2C[C@H](NC(=O)CCN3CCCCC3)CC1(c1cccc(O)c1)C2 (stereo partly drawn)
b = CC1CN(CCCc2cccs2)C2C[C@H](NC(=O)CCN3CCc4ccccc4C3)CC1(c1cccc(O)c1)C2 (stereo partly drawn)
# input In terms of reported Ratio Ke, does a or b have the smaller number? // caller expects the label of the chosen entry
# output b

P = COc1ccc2c(c1)CN(CCC(=O)N[C@H]1CC3CC(c4cccc(O)c4)(C1)C(C)CN3CCCc1ccccc1)CC2 (stereo partly drawn)
Q = CC1CCN(CCC(=O)N[C@H]2CC3CC(c4cccc(O)c4)(C2)C(C)CN3CCCc2ccccc2)CC1 (stereo partly drawn)
# input In terms of reported Ratio Ke, does P or Q have the smaller number? // caller expects the label of the chosen entry
# output P
(P: 125, Q: 666)

* * *

- Assay Target: Mu-type opioid receptor (Homo sapiens) (UniProt P35372)
- Sequence (P35372 whole entry): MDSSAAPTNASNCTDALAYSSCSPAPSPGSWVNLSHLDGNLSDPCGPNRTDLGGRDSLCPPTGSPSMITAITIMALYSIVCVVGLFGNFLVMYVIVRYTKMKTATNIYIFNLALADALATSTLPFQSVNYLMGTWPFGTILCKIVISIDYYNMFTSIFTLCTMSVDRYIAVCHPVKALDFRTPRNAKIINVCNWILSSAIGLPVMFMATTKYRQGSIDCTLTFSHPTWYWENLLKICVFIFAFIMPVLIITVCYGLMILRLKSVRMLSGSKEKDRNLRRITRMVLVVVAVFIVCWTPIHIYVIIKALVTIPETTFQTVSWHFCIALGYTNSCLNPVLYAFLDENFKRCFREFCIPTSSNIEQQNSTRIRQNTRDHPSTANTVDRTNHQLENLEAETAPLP
- Experiment Notes: Inhibition of DAMGO stimulated [35S]GTP-gamma-S binding to cloned human mu opioid receptor expressed in CHO cells
- Assay type: functional, cell-based
Measured Attribute: Ke (nM)

Consider the following illustrative entries.
molecule="CC1CCN(CCC(=O)N[C@H]2CC3CC(c4cccc(O)c4)(C2)C(C)CN3CCCc2ccccc2)CC1 (stereo partly drawn)" assay_target="Mu-type opioid receptor (Homo sapiens) (UniProt P35372)" measured_attribute=Ke reading_unit=nM quantitative_result=176
molecule="Cc1ccccc1CCN1CC(C)C2(c3cccc(O)c3)CC1C[C@H](NC(=O)CCN1CCc3ccccc3C1)C2 (stereo partly drawn)" assay_target="Mu-type opioid receptor (Homo sapiens) (UniProt P35372)" measured_attribute=Ke reading_unit=nM quantitative_result=28
molecule="COc1cc2c(cc1OC)CN(CCC(=O)N[C@H]1CC3CC(c4cccc(O)c4)(C1)C(C)CN3CCCc1ccccc1)CC2 (single isomer, unassigned; (-))" assay_target="Mu-type opioid receptor (Homo sapiens) (UniProt P35372)" measured_attribute=Ke reading_unit=nM quantitative_result=218

1 = CC1CN(CCCc2ccco2)C2C[C@H](NC(=O)CCN3CCc4ccccc4C3)CC1(c1cccc(O)c1)C2 (stereo partly drawn)
2 = CC1CN(CCCc2ccccc2)C2C[C@H](NC(=O)CCN3CCc4ccc(O)cc4C3)CC1(c1cccc(O)c1)C2 (stereo partly drawn)
# input Of the two listed items, 1 and 2 , which carries the larger Ke figure? // caller expects the label of the chosen entry
# output 2
(2: 52 nM, 1: 35 nM)

* * *

- Assay Target: Kappa-type opioid receptor (Homo sapiens) (UniProt P41145)
- Sequence (P41145 whole entry): as the sequence (P41145 whole entry, looked up) above
- Experiment Notes: Inhibition of U69,593 stimulated [35S]GTP-gamma-S binding to cloned human kappa opioid receptor expressed in CHO cells
- Assay type: functional, cell-based
Measured Attribute: Ke (nM)

molecule="CC1CN(CCCc2ccccc2)C2C[C@H](NC(=O)CCN3CCc4cc(O)ccc4C3)CC1(c1cccc(O)c1)C2 (stereo partly drawn)" assay_target="Kappa-type opioid receptor (Homo sapiens) (UniProt P41145)" reading_unit=nM quantitative_result=0.3

P = CC1CN(CCCc2ccccc2)C2C[C@H](NC(=O)CCN3CCc4c(O)cccc4C3)CC1(c1cccc(O)c1)C2 (stereo partly drawn)
Q = Cc1ccccc1CN1CC(C)C2(c3cccc(O)c3)CC1C[C@H](NC(=O)CCN1CCc3ccccc3C1)C2 (stereo partly drawn)
# input In terms of reported Ke, does P or Q have the smaller number? // caller expects the label of the chosen entry
# output P

* * *

- Assay Target: Delta-type opioid receptor (Homo sapiens) (UniProt P41143)
- Sequence (P41143 whole entry): as the sequence (P41143 whole entry, looked up) above
- Experiment Notes: Inhibition of DPDPE stimulated [35S]GTP-gamma-S binding to cloned human delta opioid receptor expressed in CHO cells
- Assay type: functional, cell-based
Measured Attribute: Ke (nM)

compound="CC1CN(CCCc2ccccc2)C2C[C@H](NC(=O)CCN3CCOCC3)CC1(c1cccc(O)c1)C2 (stereo partly drawn)" measured_attribute=Ke quantitative_result=77

1 = CCCCCCN1CC(C)C2(c3cccc(O)c3)CC1C[C@H](NC(=O)CCN1CCc3ccccc3C1)C2 (stereo partly drawn)
2 = COc1ccc2c(c1)CCN(CCC(=O)N[C@H]1CC3CC(c4cccc(O)c4)(C1)C(C)CN3CCCc1ccccc1)C2 (stereo partly drawn)
# input Of the two listed items, 1 and 2 , which carries the larger Ke figure? // caller expects the label of the chosen entry
# output 1

* * *

- Assay Target: Kappa-type opioid receptor (Homo sapiens)
- Experiment Notes: Inhibition of U69,593 stimulated [35S]GTP-gamma-S binding to cloned human kappa opioid receptor expressed in CHO cells
- Type: functional, cell-based
Measured Attribute: Ke (nM)

Consider the following illustrative entries.
compound="CC1CN(CCCc2ccccc2)C2C[C@H](NC(=O)CCN3CCOCC3)CC1(c1cccc(O)c1)C2 (stereo partly drawn)" measured_attribute=Ke quantitative_result=2.2
compound=CC(C)[C@@H](CN1CC[C@@](C)(c2cccc(O)c2)[C@@H](C)C1)NC(=O)[C@H]1Cc2ccc(O)cc2CN1 measured_attribute=Ke quantitative_result=0.02
compound="CC1CN(CCCc2ccccc2)C2C[C@H](NC(=O)CCN3CCN(C)CC3)CC1(c1cccc(O)c1)C2 (stereo partly drawn)" measured_attribute=Ke quantitative_result=0.87

1 = Cc1ccccc1CCN1CC(C)C2(c3cccc(O)c3)CC1C[C@H](NC(=O)CCN1CCc3ccccc3C1)C2 (stereo partly drawn)
2 = CC1CN(CCCc2ccsc2)C2C[C@H](NC(=O)CCN3CCc4ccccc4C3)CC1(c1cccc(O)c1)C2 (stereo partly drawn)
3 = COc1cc2c(cc1OC)CN(CCC(=O)N[C@H]1CC3CC(c4cccc(O)c4)(C1)C(C)CN3CCCc1ccccc1)CC2 (single isomer, unassigned; (-))
4 = CC1CN(CCCc2ccccc2)C2C[C@H](NC(=O)CCN3CCc4ccc(O)cc4C3)CC1(c1cccc(O)c1)C2 (stereo partly drawn)
5 = CC1CN(CCCc2cccs2)C2C[C@H](NC(=O)CCN3CCc4ccccc4C3)CC1(c1cccc(O)c1)C2 (stereo partly drawn)
# input // ranking: key=Ke, reverse=True Reply with the item labels sorted in the order that was asked for.
# output 5, 2, 3, 4, 1
